Assign self-cleavage to each entry below.
B1: CPEB3 Ribozyme (parent)
chain: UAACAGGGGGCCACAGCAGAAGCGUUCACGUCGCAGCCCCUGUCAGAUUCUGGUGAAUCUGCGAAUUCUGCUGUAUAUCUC

# Variants of: B1
# protocol.summary: self-cleavage, relative activity (ratio to wild type); higher = more cleavage; in vitro, sequencing
Give bare numbers.

Answered cases to consult:
• G22C G53C = 0.07
• A21G G73A = 1.21
• C44G C71U = 0.15
• G9U U51C = 0.17
• A15G G16U = 0.25

Could you report self-cleavage for every entry in the following list?
1. A56G A75C
2. A5G G70U
3. G8A C40U
4. G36A U78C
5. G53A U69A
6. A45U C68G
7. C38U U58G

Reply:
1: 1.12; 2: 0.41; 3: 0.14; 4: 0.23; 5: 0.67; 6: 0.25; 7: 0.08

Respectfully, I request self-cleavage for each entry included below.
1. G10A A77U
2. A35U C59A
3. G55U U72C
4. C14U U26C
5. A2G C17U

Reply:
0.04
0.15
0.78
0.66
0.56

The values you see were collected from the RNAGym collection of RNA variant scans (doi:10.1093/nar/gkz1192).
